Experimental target: SEPHS2 (Homo sapiens, UniProt Q99611, U60C)
Construct: SBPII (N); 6xHis (pET28a backbone, Ni column purification)
Sequence (Q99611 with tags, fused parts or gaps U60C): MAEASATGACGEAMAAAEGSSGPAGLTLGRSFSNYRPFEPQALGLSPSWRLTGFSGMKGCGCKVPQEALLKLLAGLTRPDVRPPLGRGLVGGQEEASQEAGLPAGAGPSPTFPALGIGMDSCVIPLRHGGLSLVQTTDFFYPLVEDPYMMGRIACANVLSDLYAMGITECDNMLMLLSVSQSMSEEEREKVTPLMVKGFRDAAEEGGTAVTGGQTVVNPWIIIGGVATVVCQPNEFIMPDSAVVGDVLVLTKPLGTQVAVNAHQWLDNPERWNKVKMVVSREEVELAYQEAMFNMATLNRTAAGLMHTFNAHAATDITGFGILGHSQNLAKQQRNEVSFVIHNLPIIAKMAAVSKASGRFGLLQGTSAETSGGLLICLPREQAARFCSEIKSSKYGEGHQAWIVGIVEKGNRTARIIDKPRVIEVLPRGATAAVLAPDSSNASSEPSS
Method: MST binding to Cy5-labeled SEPHS2
Condition description: Cy5-labeled recombinant SEPHS2; n = 2, mean ± s.d.
pKd: −log10 of the molar value.
Recorded endpoint: pKd

[[record]]
smiles_text = "Cc1nc(Nc2ncc(C(=O)Nc3c(C)cccc3Cl)s2)cc(N2CCN(CCOC(=O)NCCCCCNC(=O)OCCOCCOCCOC(=O)NCCOCCOCCCCCCCl)CC2)n1"
recorded_endpoint = "pKd"
test_value = 4.94


----------
Experimental target: VPS37C (Homo sapiens, UniProt A5D8V6)
Sequence (A5D8V6 whole entry): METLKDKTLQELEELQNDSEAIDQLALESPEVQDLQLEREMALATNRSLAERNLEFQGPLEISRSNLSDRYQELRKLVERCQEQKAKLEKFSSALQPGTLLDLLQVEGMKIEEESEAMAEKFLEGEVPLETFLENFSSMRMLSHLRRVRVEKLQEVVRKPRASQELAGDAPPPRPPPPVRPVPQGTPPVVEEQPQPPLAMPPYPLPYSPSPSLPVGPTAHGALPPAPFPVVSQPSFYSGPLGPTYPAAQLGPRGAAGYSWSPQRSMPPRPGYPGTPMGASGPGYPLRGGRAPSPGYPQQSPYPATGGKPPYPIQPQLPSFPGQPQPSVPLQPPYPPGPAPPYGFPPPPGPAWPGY
Method: MST binding to Cy5-labeled VPS37C
Condition description: purified recombinant VPS37C; n = 2, mean ± s.d.
Recorded endpoint: Kd (µM)

[[record]]
molecule = "CCN(CCO)CCCC(C)Nc1ccnc2cc(Cl)ccc12 (centres unmarked) [HCQ, hydroxychloroquine, reference compound]"
test_value = 16.9

[[record]]
molecule = "Clc1ccc2c(NCCCCCCNCCCCCCNc3ccnc4cc(Cl)ccc34)ccnc2c1"
test_value = 0.0215

